system: MYLK; conditions: concentration: 1 μM, replicates: in singlicate; n = 1;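 further: KINOMEscan kinase panel screen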
experimental-endpoint: %Inh (%)
Respond numerically; units are % and should not be typed.

// solved cases for %Inh follow
molecule	%Inh, %
Cl.Oc1ccc(-c2nc(-c3ccccc3)[nH]c2-c2ccncc2)cc1 [SB-428218]	22
Cc1cc(NCC(c2ccccc2)c2ccccc2)nc(NCc2ccc(C(F)(F)F)cc2)n1 [GW497681]	15
COc1ccccc1-c1ccc2c(NC(=O)C3CC3)n[nH]c2n1 [SB-711239]	12
COC(=O)c1c(-c2ccccc2)c2cc(OC)ccc2c(=O)n1Cc1ccccc1	0
O=C(O)COc1ncnc2cc(-c3ccc4[nH]ncc4c3)sc12	7
Cc1cccc(-c2nc(C)cc(Nc3ccncc3)n2)n1 [GSK257997]	5
CN1C(=O)C(Nc2ccc(Cl)c(C(=O)O)c2)=C(c2ccc(Cl)cc2)C1=O [SB-404290]	12
CCn1c(-c2ccccn2)nc2cnccc21 [SB-736398]	0

Here is the next item to consider.
The recorded %Inh for entry O=C(Nc1ccccc1)Nc1cccc(Oc2ccc3nccn3n2)c1 equals 0

* * *

system: RIPK2; conditions: concentration: 1 μM, replicates: in singlicate; n = 1
Binary call on %Inh: Condition met from 4% upward, Condition not met beneath that.

molecule	assigned-class
Cc1ccccc1-n1cnc2c(N)ncnc21 [SKF-97510]	Condition not met
CCCc1ccc(S(=O)(=O)NC2CCN(c3ccnc(Nc4ccc(F)cc4)n3)C2)cc1 (centres unmarked) [GSK1379715]	Condition not met
Cc1c(Cn2ccn3c(=O)cc(N4CCOCC4)nc23)cccc1C(F)(F)F [GSK2289044]	Condition met
O=C(Nc1ccccc1)Nc1cccc(Oc2ccc3nccn3n2)c1	Condition not met
CC(C)(C)c1ccc(C(=O)Nc2cn3cc(-c4cccnc4)ccc3n2)cc1	Condition met

Could you tell me if the measured %Inh of CN(C)CCN(C)C(=O)c1cc(-c2ccncc2)c(-c2ccc(Cl)c(O)c2)o1.Cl.Cl [SB-710397] reaches 4% or more?
Condition met

Could you tell me if the measured %Inh of Fc1cccc(COc2nnc(-c3ccc4c(c3)CCO4)o2)c1 reaches 4% or more?
Condition not met

Could you tell me if the measured %Inh of CCn1c(-c2cccnc2O)nc2cnccc21 [SB-736715] reaches 4% or more?
Condition not met

Could you tell me if the measured %Inh of O=C(Nc1ccc2c(c1)OCO2)NC1CCN(c2ccnc(Nc3ccc(F)cc3)n2)C1 (centres unmarked) [GSK1379724] reaches 4% or more?
Condition not met

Could you tell me if the measured %Inh of Cc1nnc(-c2ccc3occ(-c4ccc(S(C)=O)cc4)c3c2)[nH]1 (centres unmarked) reaches 4% or more?
Condition met

Could you tell me if the measured %Inh of COc1cc2nccc(Nc3ccc(NC(=O)c4ccc(C)cc4)c(O)c3)c2cc1OC.Cl [GW440132] reaches 4% or more?
Condition met

Could you tell me if the measured %Inh of Nc1ncnc2[nH]c(-c3ccccc3)nc12 [AH5015] reaches 4% or more?
Condition met

Could you tell me if the measured %Inh of COc1ccc(Nc2nccc(-c3cccc(NC(=O)c4cc5cc(F)ccc5[nH]4)c3)n2)cc1 [GSK1229782] reaches 4% or more?
Condition met

* * *

test system: NDR1; construct: gene STK38; conditions: concentration: 1 μM, replicates: in singlicate; n = 1
Entries annotated with measured %Inh
Respond numerically; units are % and should not be typed.

The recorded %Inh for entry O=S(=O)(c1ccc(-c2ccnc3[nH]ccc23)cc1)N1CCCC1 [GSK846226] equals 33
